test system: FD (familial dysautomonia) IKBKAP minigene, exon 20 inclusion, in HEK293T cells; assay: Primary splicing assay (FD IKBKAP minigene, Firefly/Renilla luciferase reporter in HEK293T); assay type: cell-based, human; details: Homo sapiens, HEK-293T; max efficacy in Primary Assay; Firefly/Renilla ratio, kinetin and DMSO as positive and negative controls; 24 hours of treatment; read-out: Emax (%)
For each record, write down the corresponding Emax.
Give the number; % is assumed, so skip it.

Look up Emax: COc1nc2c(NCc3ccco3)nc(Cl)nc2[nH]1 [(124)]
180

Look up Emax: N#Cc1nc(NCc2ccco2)c2nc[nH]c2n1 [(47)]
99

Look up Emax: CCCOc1nc2nc(Cl)nc(NCc3nccs3)c2n1C [(335)]
35

Look up Emax: COc1nc2c(NCc3cncs3)nc(Cl)nc2[nH]1 [(376)]
23.5

Look up Emax: Clc1nc(NCc2ccco2)c2c(Cl)c[nH]c2n1 [(205)]
27

Look up Emax: Clc1nc(NCc2ccncc2)c2cn[nH]c2n1 [(217)]
151

Look up Emax: CC(C)(C)OC(=O)N1CC(Oc2nc3c(NCc4ccncc4)nc(Cl)nc3[nH]2)C1 [(327)]
145

Look up Emax: CCCOc1nc2c(NCc3nccs3)nc(Cl)nc2[nH]1 [(271)]
206

Look up Emax: Clc1nc(NCc2ccncn2)c2nc(OCC3CCC3)[nH]c2n1 [(326)]
287

Look up Emax: O=C1CCCN1CCOc1nc2c(NCc3ccco3)nc(Cl)nc2[nH]1 [(396)]
38.7

Look up Emax: Cc1cc(CNc2nc(Cl)nc3[nH]ccc23)ccn1 [(189)]
33
